tested on: SW480; assay: cell viability (CellTiter-Glo) relative to plate median (fraction of plate median); higher = more viable cells; conditions: 10 µM; treatment time 24 h; reporter: 7TFP
Listing of recorded cell viability by entry.
Respond with the number and no other words.

Study these solved cases before continuing.
CC[C@@H]1C(=O)N(C)c2cnc(Nc3ccc(C(=O)NC4CCN(C)CC4)cc3OC)nc2N1C1CCCC1 : 0.897
Cn1cnc(N)c2ncnc1-2 [3-Methyladenine] : 0.867

Ask: Requested field: cell viability. Item: CN(C)CCOc1ccc(-c2nc(-c3ccncc3)c(-c3ccc4c(c3)CC/C4=N\O)[nH]2)cc1
Result: 1.11

Ask: Quick check: cell viability of C[S+]([O-])c1ccc(-c2nc(-c3ccc(F)cc3)c(-c3ccncc3)[nH]2)cc1 (centres undefined) ?
Result: 0.913

Ask: Recorded cell viability for CCc1cnn2c(NCc3ccc[n+]([O-])c3)cc(N3CCCC[C@H]3CCO)nc12 , please?
Result: 1.34

Ask: Which measured cell viability value corresponds to CC1(C)CNc2cc(NC(=O)c3cccnc3NCc3ccncc3)ccc21 [Motesanib Diphosphate] ?
Result: 0.88

Ask: // cell viability lookup, key: O=c1sn(-c2cccc3ccccc23)c(=O)n1Cc1ccccc1 [Tideglusib]
Result: 0.946

Ask: I would be grateful if you could share the reported cell viability for COCC(=O)NC/C=C/c1ccc2ncnc(Nc3ccc(Oc4ccc(C)nc4)c(C)c3)c2c1 .
Result: 0.952

Ask: Can you look up the measured cell viability of Cc1cc(C(C)Nc2ccccc2)c2nc(N3CCOCC3)cc(=O)n2c1 (centres undefined) for me?
Result: 0.909
